Just for reference, paper PMC6150271 is where these values come from.

Overview of recorded melting point for various compounds

Known melting point results, listed for orientation:
| Compound | Measured result |
| --- | --- |
| CC(C)=CCC12OC(C)(C)C3CC(C=C4C(=O)c5c(OCc6cn(CCCN7CCN(C)CC7)nn6)cccc5OC431)C2=O (stereo not drawn) | 126 to 129 °C |
| CC(C)=CCC12OC(C)(C)C3CC(C=C4C(=O)c5c(OCc6cn(CCN(C)C)nn6)cccc5OC431)C2=O (stereo not drawn) | 156 to 158 °C |

Query block: Which melting point reading was recorded for the compound CC(C)=CCC12OC(C)(C)C3CC(C=C4C(=O)c5c(OCc6cn(CCCN(C)C)nn6)cccc5OC431)C2=O (stereo not drawn) ?
Result block: 133 to 136 °C

---

- Test system: taxol-resistant A549 cell line (A549/taxol)
- Assay name: MTT antiproliferative assay, A549/taxol
- Type: cell-based
- Test parameters: Homo sapiens, A549/Taxol; MTT, 72 h; read-out: IC50 A549/Taxol
Measured parameter: IC50 (nM)
Numbers only here, please. The scale is nM.

Known IC50 results, listed for orientation:
| Molecule | Unit | IC50 |
| --- | --- | --- |
| CC(C)=CCC12OC(C)(C)C3CC(C=C4C(=O)c5c(OCc6cn(CCN7CCCC7)nn6)cccc5OC431)C2=O (centres unmarked) [Compound 8c] | nM | 1290 |
| CC(C)=CCC12OC(C)(C)C3CC(C=C4C(=O)c5c(OCc6cn(CCN7CCCCC7)nn6)cccc5OC431)C2=O (centres unmarked) [Compound 8e] | nM | 2030 |

Query block: Which IC50 reading was recorded for the molecule CC(C)=CCC12OC(C)(C)C3CC(C=C4C(=O)c5c(OCc6cn(CCN(C)C)nn6)cccc5OC431)C2=O (centres unmarked) [Compound 8a] ?
Result block: 1220

Query block: Next molecule up: CC(C)=CCC12OC(C)(C)C3CC(C=C4C(=O)c5c(OCc6cn(CCN7CCN(C)CC7)nn6)cccc5OC431)C2=O (centres unmarked) [Compound 8i]
Result block: 2120

Query block: Next molecule up: CC(C)=CCC12OC(C)(C)C3CC(C=C4C(=O)c5c(OCc6cn(CCN7CCOCC7)nn6)cccc5OC431)C2=O (centres unmarked) [Compound 8g]
Result block: 420
